- Measurement target: human factor XIa (Homo sapiens, UniProt P03951)
- Sequence (P03951 388-625 limits assumed): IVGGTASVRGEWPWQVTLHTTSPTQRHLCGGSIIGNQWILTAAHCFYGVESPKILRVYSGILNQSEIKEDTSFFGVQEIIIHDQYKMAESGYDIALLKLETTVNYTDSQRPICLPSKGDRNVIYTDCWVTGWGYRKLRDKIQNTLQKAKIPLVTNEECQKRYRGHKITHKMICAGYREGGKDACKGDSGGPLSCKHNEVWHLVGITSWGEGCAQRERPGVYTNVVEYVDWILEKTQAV
- Sequence (P03951 19-387 partner limits assumed): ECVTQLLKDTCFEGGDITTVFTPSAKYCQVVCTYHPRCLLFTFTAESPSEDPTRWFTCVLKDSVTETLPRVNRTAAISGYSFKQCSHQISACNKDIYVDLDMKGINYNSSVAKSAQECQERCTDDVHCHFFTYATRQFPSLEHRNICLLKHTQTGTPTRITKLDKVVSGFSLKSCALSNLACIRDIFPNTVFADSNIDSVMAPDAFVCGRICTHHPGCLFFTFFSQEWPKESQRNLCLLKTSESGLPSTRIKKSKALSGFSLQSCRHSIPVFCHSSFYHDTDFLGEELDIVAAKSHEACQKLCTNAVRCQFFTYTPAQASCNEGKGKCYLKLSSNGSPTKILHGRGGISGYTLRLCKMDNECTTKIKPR
Where a name gives a salt, the structure may show the parent alone.
Reported endpoint: IC50

Measured IC50 of Cc1ccc(S(=O)(=O)N(C)C)cc1-c1cccc(C[C@H](NC(=O)[C@H]2CC[C@H](CN)CC2)C(=O)Nc2ccc3[nH]c(=O)[nH]c3c2)c1 [Example 44, hydrochloride] : 13 nM

Measured IC50 of NC[C@H]1CC[C@H](C(=O)N[C@@H](Cc2cccc(-c3cnccc3Cl)c2)C(=O)Nc2ccc(-c3noc(=O)[nH]3)cc2)CC1 [Example 107, hydrochloride] : 6.2 nM

Measured IC50 of NC[C@H]1CC[C@H](C(=O)N[C@@H](Cc2cccc(-c3ccc(C(=O)NCCN4CCCCC4)cc3)c2)C(=O)Nc2ccc(-c3nnn[nH]3)cc2)CC1 [Example 37, hydrochloride] : 5.6 nM

====

- Measurement target: human factor XIa (Homo sapiens, UniProt P03951)
- Construct: purchased Kordia
- Measurement notes: Measurement of FXIa inhibition (fluorogenic peptide substrate Boc-Glu(OBzl)-Ala-Arg-AMC)
- Type: biochemical
- Experimental context: factor XIa from Kordia 0.45 nM, 15 min pre-incubation, 30 min at 22° C., fluorescence
Counter-ions that a name gives are not always drawn.
Reported endpoint: pIC50
Please report pIC50 as the negative decimal logarithm of the molar concentration, giving only the number.

Measured pIC50 of Cc1ccc(N)cc1-c1cccc(C[C@H](NC(=O)[C@H]2CC[C@H](CN)CC2)C(=O)Nc2ccc(-c3nnn[nH]3)cc2)c1 [Example 103, hydrochloride] : 8.48

Measured pIC50 of NC[C@H]1CC[C@H](C(=O)N[C@@H](Cc2cccc(-c3cccnc3C(F)(F)F)c2)C(=O)Nc2ccc(-c3nnn[nH]3)cc2)CC1 [Example 81, hydrochloride] : 8.60

Measured pIC50 of Cc1ccc(C[C@H](NC(=O)[C@H]2CC[C@H](CN)CC2)C(=O)Nc2ccc(-c3nnn[nH]3)cc2)cc1-c1cccc(C(=O)N2CCOCC2)c1 [Example 17, hydrochloride] : 8.39

Measured pIC50 of Cc1ccc2[nH]ncc2c1-c1cccc(C[C@H](NC(=O)[C@H]2CC[C@H](CN)CC2)C(=O)Nc2ccc(-c3nnn[nH]3)cc2)c1 [Example 83, hydrochloride] : 8.89

Measured pIC50 of CN1CCN(C(=O)c2cccc(-c3cccc(C[C@H](NC(=O)[C@H]4CC[C@H](CN)CC4)C(=O)Nc4ccc(-c5nnn[nH]5)cc4)c3)c2)CC1 [Example 31, hydrochloride] : 8.15

Measured pIC50 of Cc1cc(S(=O)(=O)N(C)C)ccc1-c1cccc(C[C@H](NC(=O)[C@H]2CC[C@H](CN)CC2)C(=O)Nc2ccc(-c3nnn[nH]3)cc2)c1 [Example 7, hydrochloride] : 8.77

Measured pIC50 of NC[C@H]1CC[C@H](C(=O)N[C@@H](Cc2cccc(-c3cccc(C(=O)N4CCOCC4)c3)c2)C(=O)Nc2ccc(-c3nnn[nH]3)cc2)CC1 [Example 47, hydrochloride] : 8.28

Measured pIC50 of COCc1nnc(-c2ccc(NC(=O)[C@H](Cc3cccc(-c4ccccc4C(C)C)c3)NC(=O)[C@H]3CC[C@H](CN)CC3)cc2)[nH]1 [Example 104, hydrochloride] : 8.07

Measured pIC50 of Cc1ccc(S(=O)(=O)N2CCCC2)cc1-c1cccc(C[C@H](NC(=O)[C@H]2CC[C@H](CN)CC2)C(=O)Nc2ccc3[nH]c(=O)[nH]c3c2)c1 [Example 11, hydrochloride] : 8.10

Measured pIC50 of Cc1ccc(S(=O)(=O)NCc2ccccc2)cc1-c1cccc(C[C@H](NC(=O)[C@H]2CC[C@H](CN)CC2)C(=O)Nc2ccc(-c3nnn[nH]3)cc2)c1 [Example 1, hydrochloride] : 9.40

Measured pIC50 of Cc1cc(N)ccc1-c1cccc(C[C@H](NC(=O)[C@H]2CC[C@H](CN)CC2)C(=O)Nc2ccc(-c3nnn[nH]3)cc2)c1 [Example 97, hydrochloride] : 8.68

====

- Test system: human and animal plasma
- Measurement notes: Determination of anticoagulatory activity: activated partial thromboplastin time (aPTT) in plasma
- Experimental context: concentration of test substance which brings about a 1.5-fold extension of the aPTT; plasma in vitro, C.K. Prest kit
Counter-ions that a name gives are not always drawn.
Reported endpoint: aPTT (µmol/L)
# unit: µmol/L | format: bare number

Measured aPTT of Cc1ccc(C(=O)NC2CCNCC2)cc1-c1cccc(C[C@H](NC(=O)[C@H]2CC[C@H](CN)CC2)C(=O)Nc2ccc(-c3nnn[nH]3)cc2)c1 [Example 14, hydrochloride] : 0.15

Measured aPTT of CN(C)c1ncc(-c2cccc(C[C@H](NC(=O)[C@H]3CC[C@H](CN)CC3)C(=O)Nc3ccc(-c4nnn[nH]4)cc3)c2)c(OCc2ccccc2)n1 [Example 78, hydrochloride] : 0.19

Measured aPTT of Cc1ccc(S(=O)(=O)N2CCOCC2)cc1-c1cccc(C[C@H](NC(=O)[C@H]2CC[C@H](CN)CC2)C(=O)Nc2ccc3[nH]c(=O)[nH]c3c2)c1 [Example 10, hydrochloride] : 0.23

====

- System: human and animal plasma
- Measurement notes: Determination of anticoagulatory activity: activated partial thromboplastin time (aPTT) in plasma
- Experimental context: concentration of test substance which brings about a 1.5-fold extension of the aPTT; plasma in vitro, C.K. Prest kit
Counter-ions that a name gives are not always drawn.
// classify(record): look up aPTT in ranges Low (below 0.2 µmol/L), Mid (0.2 µmol/L to below 0.4 µmol/L), High (0.4 µmol/L or more)

Q: Assign a bin to Cc1ccc(S(=O)(=O)NCc2ccccc2)cc1-c1cccc(C[C@H](NC(=O)[C@H]2CC[C@H](CN)CC2)C(=O)Nc2ccc(-c3noc(=O)[nH]3)cc2)c1 [Example 60, hydrochloride]
Ans: Mid

Q: Assign a bin to CCN(CC)CCNC(=O)c1cccc(-c2cccc(C[C@H](NC(=O)[C@H]3CC[C@H](CN)CC3)C(=O)Nc3ccc(-c4nnn[nH]4)cc3)c2)c1 [Example 34, hydrochloride]
Ans: Mid

Q: Assign a bin to NC[C@H]1CC[C@H](C(=O)N[C@@H](Cc2cccc(-c3cnc(NC4CC4)nc3)c2)C(=O)Nc2ccc(-c3nnn[nH]3)cc2)CC1 [Example 82, hydrochloride]
Ans: Low

Q: Assign a bin to NC[C@H]1CC[C@H](C(=O)N[C@@H](Cc2cccc(-c3cnc(N4CCOCC4)nc3)c2)C(=O)Nc2ccc(-c3n[nH]c(C(F)(F)C(F)(F)C(=O)O)n3)cc2)CC1 [Example 96, hydrochloride]
Ans: Low

Q: Assign a bin to NC[C@H]1CC[C@H](C(=O)N[C@@H](Cc2cccc(-c3cccc(C(=O)NCCN4CCCC4)c3)c2)C(=O)Nc2ccc(-c3nnn[nH]3)cc2)CC1 [Example 61, hydrochloride]
Ans: Mid

Q: Assign a bin to Cc1ccc(S(=O)(=O)NCc2ccccc2)cc1-c1cccc(C[C@H](NC(=O)[C@H]2CC[C@H](CN)CC2)C(=O)Nc2ccc(-c3nnn[nH]3)cc2)c1 [Example 1, hydrochloride]
Ans: Low

Q: Assign a bin to Cc1cc(N2CCOCC2)ncc1-c1cccc(C[C@H](NC(=O)[C@H]2CC[C@H](CN)CC2)C(=O)Nc2ccc(-c3nnc(Cl)[nH]3)cc2)c1 [Example 102, hydrochloride]
Ans: High

Q: Assign a bin to Cc1cnccc1-c1cccc(C[C@H](NC(=O)[C@H]2CC[C@H](CN)CC2)C(=O)Nc2ccc(-c3n[nH]c(=O)[nH]3)cc2)c1 [Example 89, hydrochloride]
Ans: High

Q: Assign a bin to NC[C@H]1CC[C@H](C(=O)N[C@@H](Cc2cccc(-c3ccc(C(=O)NC4CCNCC4)cc3)c2)C(=O)Nc2ccc3cn[nH]c3c2)CC1 [Example 51, hydrochloride]
Ans: Mid

====

Counter-ions that a name gives are not always drawn.
Reported endpoint: pIC50
Please report pIC50 as the negative decimal logarithm of the molar concentration, giving only the number.

// pIC50 (UniProt P03951) for Cc1cnccc1-c1cccc(C[C@H](NC(=O)[C@H]2CC[C@H](CN)CC2)C(=O)Nc2ccc(-c3nnn[nH]3)cc2)c1 [Example 80, hydrochloride] = 8.62

// pIC50 (UniProt P03951) for Cc1nc(O)ccc1-c1cccc(C[C@H](NC(=O)[C@H]2CC[C@H](CN)CC2)C(=O)Nc2ccc(-c3nnn[nH]3)cc2)c1 [Example 98, hydrochloride] = 8.27

// pIC50 (UniProt P03951) for Cc1ccc(C[C@H](NC(=O)C2CCC(CN)CC2)C(=O)Nc2ccc(-c3nnn[nH]3)cc2)cc1-c1cccc(C(=O)NC2C3CNCC32)c1 (some centres unmarked) [Example 35, hydrochloride] = 8.00

// pIC50 (UniProt P03951) for CC(C)N1CCC(NC(=O)c2cccc(-c3cccc(C[C@H](NC(=O)[C@H]4CC[C@H](CN)CC4)C(=O)Nc4ccc(-c5nnn[nH]5)cc4)c3)c2)CC1 [Example 32, hydrochloride] = 8.17

// pIC50 (UniProt P03951) for Cc1ccc(S(=O)(=O)N(C)C)cc1-c1cccc(C[C@H](NC(=O)[C@H]2CC[C@H](CN)CC2)C(=O)Nc2ccc(-c3nnn[nH]3)cc2)c1 [Example 4, hydrochloride] = 8.82

// pIC50 (UniProt P03951) for NC[C@H]1CC[C@H](C(=O)N[C@@H](Cc2cccc(-c3ccc(C(=O)N4CCN(CCO)CC4)cc3)c2)C(=O)Nc2ccc(-c3nnn[nH]3)cc2)CC1 [Example 48, hydrochloride] = 8.16

// pIC50 (UniProt P03951) for NC[C@H]1CC[C@H](C(=O)N[C@@H](Cc2cccc(-c3cccc(C(=O)NCCN4CCOCC4)c3)c2)C(=O)Nc2ccc(-c3nnn[nH]3)cc2)CC1 [Example 29, hydrochloride] = 8.26

// pIC50 (UniProt P03951) for CCN(CC)CCNC(=O)c1cccc(-c2cccc(C[C@H](NC(=O)[C@H]3CC[C@H](CN)CC3)C(=O)Nc3ccc(-c4nnc(Cl)[nH]4)cc3)c2)c1 [Example 40, hydrochloride] = 8.08

// pIC50 (UniProt P03951) for COCc1nnc(-c2ccc(NC(=O)[C@H](Cc3cccc(-c4cccc5ncccc45)c3)NC(=O)[C@H]3CC[C@H](CN)CC3)cc2)[nH]1 [Example 105, hydrochloride] = 7.89

// pIC50 (UniProt P03951) for Cc1ccc(S(=O)(=O)N2CCOCC2)cc1-c1cccc(C[C@H](NC(=O)[C@H]2CC[C@H](CN)CC2)C(=O)Nc2ccc(-c3nnn[nH]3)cc2)c1 [Example 3, hydrochloride] = 9.05

// pIC50 (UniProt P03951) for NCCNC(=O)c1ccc(-c2cccc(C[C@H](NC(=O)[C@H]3CC[C@H](CN)CC3)C(=O)Nc3ccc4cn[nH]c4c3)c2)cc1 [Example 50, hydrochloride] = 7.26
